assay target: Streptococcus pneumonia UPPS (Streptococcus pneumoniae serotype 4, UniProt Q97SR4)
Sequence (Q97SR4 1-252): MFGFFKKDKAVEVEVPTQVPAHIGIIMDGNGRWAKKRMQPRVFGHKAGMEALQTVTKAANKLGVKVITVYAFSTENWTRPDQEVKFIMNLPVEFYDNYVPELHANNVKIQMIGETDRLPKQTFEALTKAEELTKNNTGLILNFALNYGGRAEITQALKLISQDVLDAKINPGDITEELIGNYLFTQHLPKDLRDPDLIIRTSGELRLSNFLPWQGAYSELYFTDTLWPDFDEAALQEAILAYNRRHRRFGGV
measured quantity: IC50

Here are 3 compounds together with their reported answers.
{"compound": "Cn1c(=O)c(C(=O)Nc2ccc(Oc3ccccc3)cc2)c(O)c2ccccc21 [compound 168]", "IC50": "0.01 to 10 µM"}
{"compound": "COc1cccc2[nH]c(=O)c(C(=O)Nc3ccc(Oc4ccccc4)cc3)c(O)c12 [compound 144]", "IC50": "> 50 µM"}
{"compound": "O=C(Nc1ccc(C(F)(F)F)cc1)C1=C(O)[C@H]2CCC[C@H]2NC1=O [compound 40]", "IC50": "0.01 to 10 µM"}

Ask: Request - read-out IC50 | tested on Streptococcus pneumonia UPPS (Streptococcus pneumoniae serotype 4, UniProt Q97SR4) | compound O=C(Nc1ccc(C2CCCCC2)cc1)C1=C(O)[C@H]2CNCC[C@@H]2NC1=O [compound 51]
Reply: 0.01 to 10 µM
